- Tested Target: CETP (Homo sapiens)
- Sequence (P11597 18-493): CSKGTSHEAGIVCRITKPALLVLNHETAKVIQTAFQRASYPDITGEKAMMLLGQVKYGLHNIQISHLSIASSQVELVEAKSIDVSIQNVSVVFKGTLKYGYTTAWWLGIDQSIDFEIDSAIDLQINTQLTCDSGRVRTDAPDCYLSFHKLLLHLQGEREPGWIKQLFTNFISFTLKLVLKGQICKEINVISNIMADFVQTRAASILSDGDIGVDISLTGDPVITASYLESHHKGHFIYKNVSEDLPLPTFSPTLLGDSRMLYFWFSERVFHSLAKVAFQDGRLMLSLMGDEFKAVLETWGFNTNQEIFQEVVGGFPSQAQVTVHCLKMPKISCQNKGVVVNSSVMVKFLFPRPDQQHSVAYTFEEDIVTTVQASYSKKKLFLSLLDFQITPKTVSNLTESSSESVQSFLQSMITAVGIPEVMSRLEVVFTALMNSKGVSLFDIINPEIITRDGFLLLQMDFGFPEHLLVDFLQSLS
- Test: Assay of CETP Inhibition using Purified Components (Reconstituted Buffer Assay)
- Format: biochemical
- Set-up: made in house; host or cells: CHO cells (serum-free conditioned medium)
- Condition Set: Inhibition of CETP activity in reconstituted buffer assay; transfer of [3H]CE from HDL to LDL; read-out: IC50
pIC50: −log10 of the molar value.
Quick list: pIC50 per entry.
Recorded Metric: pIC50

molecule="CC(C)NC(=O)Nc1cccc(N(Cc2cccc(OC(F)(F)C(F)F)c2)CC(O)C(F)(F)F)c1 (stereo not shown)" recorded_metric=pIC50 value_measured="< 4.30"
molecule="COc1ccccc1N(Cc1cccc(C)c1)CC(O)C(F)(F)F (stereo not shown)" recorded_metric=pIC50 value_measured="< 4.00"
molecule="Cc1cccc(CN(CC(O)C(F)(F)F)c2cccc(C(F)(F)F)c2F)c1 (stereo not shown)" recorded_metric=pIC50 value_measured="< 4.00"
molecule="O=C(Nc1cccc(N(Cc2cccc(OC(F)(F)C(F)F)c2)CC(O)C(F)(F)F)c1)c1ccccc1 (stereo not shown)" recorded_metric=pIC50 value_measured="< 4.30"
